Each entry below lists one item and its recorded IC50 value.
test_target: UniProt:P07900
measurement_protocol: Inhibition of fluorescein isothiocyanate labeled geldanamycin binding to recombinant Hsp90alpha (unknown origin) after 1 hr by fluorescence polarization assay

substance_smiles	test_target	reading_qualifier	IC50 / nM
CC(C)c1cc(-c2onc(C(=O)N[C@@H](C(=O)NCCN3CCOCC3)C(C)C)c2-c2ccc(CN3CCOCC3)cc2)c(O)cc1O	UniProt:P07900	=	206
COC(=O)[C@@H](CC1CCCCC1)NC(=O)c1noc(-c2cc(C(C)C)c(O)cc2O)c1-c1ccc(CN2CCOCC2)cc1	UniProt:P07900	=	836
CCOC(=O)[C@H](NC(=O)c1noc(-c2cc(C(C)C)c(O)cc2O)c1-c1ccc(CN2CCOCC2)cc1)C(C)C	UniProt:P07900	=	189
COC(=O)[C@H](NC(=O)c1cnc(N2CCN(C(=O)c3noc(-c4cc(C(C)C)c(O)cc4O)c3-c3ccc(CN4CCOCC4)cc3)CC2)nc1)C(C)C	UniProt:P07900	=	473
CC(C)c1cc(-c2onc(C(=O)N[C@@H](C(=O)OC(C)(C)C)C(C)C)c2-c2ccc(CN3CCOCC3)cc2)c(O)cc1O	UniProt:P07900	=	112
COC(=O)[C@@H](Cc1ccccc1)NC(=O)c1cnc(N2CCC(CNC(=O)c3noc(-c4cc(C(C)C)c(O)cc4O)c3-c3ccc(CN4CCOCC4)cc3)CC2)nc1	UniProt:P07900	=	749
COC(=O)[C@@H](Cc1c[nH]c2ccccc12)NC(=O)c1noc(-c2cc(C(C)C)c(O)cc2O)c1-c1ccc(CN2CCOCC2)cc1	UniProt:P07900	=	368
COC(=O)[C@@H](Cc1ccccc1)NC(=O)COCCOCCNC(=O)c1noc(-c2cc(C(C)C)c(O)cc2O)c1-c1ccc(CN2CCOCC2)cc1	UniProt:P07900	>	1000
COC(=O)[C@@H](Cc1ccccc1)NC(=O)[C@H](NC(=O)c1noc(-c2cc(C(C)C)c(O)cc2O)c1-c1ccc(CN2CCOCC2)cc1)C(C)C	UniProt:P07900	=	397
COC(=O)[C@@H](CC(C)C)NC(=O)c1noc(-c2cc(C(C)C)c(O)cc2O)c1-c1ccc(CN2CCOCC2)cc1	UniProt:P07900	=	151
COC(=O)[C@H](NC(=O)CCCCCNC(=O)c1noc(-c2cc(C(C)C)c(O)cc2O)c1-c1ccc(CN2CCOCC2)cc1)C(C)C	UniProt:P07900	=	98
COC(=O)[C@H](NC(=O)[C@H](NC(=O)[C@H](NC(=O)[C@H](NC(=O)c1noc(-c2cc(C(C)C)c(O)cc2O)c1-c1ccc(CN2CCOCC2)cc1)C(C)C)C(C)C)C(C)C)C(C)C	UniProt:P07900	=	528
COC(=O)[C@H](NC(=O)c1noc(-c2cc(C(C)C)c(O)cc2O)c1-c1ccc(CN2CCOCC2)cc1)C(C)C	UniProt:P07900	=	79
CCNC(=O)[C@H](NC(=O)c1noc(-c2cc(C(C)C)c(O)cc2O)c1-c1ccc(CN2CCOCC2)cc1)C(C)C	UniProt:P07900	=	28
COC(=O)[C@H](NC(=O)COCCOCCNC(=O)c1noc(-c2cc(C(C)C)c(O)cc2O)c1-c1ccc(CN2CCOCC2)cc1)C(C)C	UniProt:P07900	=	154
COC(=O)[C@@H](Cc1ccccc1)NC(=O)CCCCCNC(=O)c1noc(-c2cc(C(C)C)c(O)cc2O)c1-c1ccc(CN2CCOCC2)cc1	UniProt:P07900	=	307
COC(=O)[C@@H](CO)NC(=O)c1noc(-c2cc(C(C)C)c(O)cc2O)c1-c1ccc(CN2CCOCC2)cc1	UniProt:P07900	=	72
